Entry source: BigSolDB 2.1

- experimental-context: in water, 318.15 K
measurement-name: solubility (mole fraction)

structure_smiles=CC(=O)Nc1ccc(OC(=O)c2ccccc2OC(C)=O)cc1 result_number=8.99e-06

====

- experimental-context: in isopropanol, 313.15 K
measurement-name: solubility (mole fraction)

structure_smiles=CC(=O)Nc1ccc(OC(=O)c2ccccc2OC(C)=O)cc1 result_number=0.00103

====

- experimental-context: in isopropanol, 288.15 K
measurement-name: solubility (mole fraction)

structure_smiles=CC(=O)Nc1ccc(OC(=O)c2ccccc2OC(C)=O)cc1 measurement_name="solubility (mole fraction)" result=0.000257

====

- experimental-context: in NMP, 308.15 K
measurement-name: solubility (mole fraction)

structure_smiles=CC(=O)Nc1ccc(OC(=O)c2ccccc2OC(C)=O)cc1 result_number=0.0461
